target: VEGFR2, unphosphorylated (Homo sapiens (Human), UniProt P35968); test: VEGFR ADP GLO Assay; format: biochemical
Sequence (P35968 20-1356): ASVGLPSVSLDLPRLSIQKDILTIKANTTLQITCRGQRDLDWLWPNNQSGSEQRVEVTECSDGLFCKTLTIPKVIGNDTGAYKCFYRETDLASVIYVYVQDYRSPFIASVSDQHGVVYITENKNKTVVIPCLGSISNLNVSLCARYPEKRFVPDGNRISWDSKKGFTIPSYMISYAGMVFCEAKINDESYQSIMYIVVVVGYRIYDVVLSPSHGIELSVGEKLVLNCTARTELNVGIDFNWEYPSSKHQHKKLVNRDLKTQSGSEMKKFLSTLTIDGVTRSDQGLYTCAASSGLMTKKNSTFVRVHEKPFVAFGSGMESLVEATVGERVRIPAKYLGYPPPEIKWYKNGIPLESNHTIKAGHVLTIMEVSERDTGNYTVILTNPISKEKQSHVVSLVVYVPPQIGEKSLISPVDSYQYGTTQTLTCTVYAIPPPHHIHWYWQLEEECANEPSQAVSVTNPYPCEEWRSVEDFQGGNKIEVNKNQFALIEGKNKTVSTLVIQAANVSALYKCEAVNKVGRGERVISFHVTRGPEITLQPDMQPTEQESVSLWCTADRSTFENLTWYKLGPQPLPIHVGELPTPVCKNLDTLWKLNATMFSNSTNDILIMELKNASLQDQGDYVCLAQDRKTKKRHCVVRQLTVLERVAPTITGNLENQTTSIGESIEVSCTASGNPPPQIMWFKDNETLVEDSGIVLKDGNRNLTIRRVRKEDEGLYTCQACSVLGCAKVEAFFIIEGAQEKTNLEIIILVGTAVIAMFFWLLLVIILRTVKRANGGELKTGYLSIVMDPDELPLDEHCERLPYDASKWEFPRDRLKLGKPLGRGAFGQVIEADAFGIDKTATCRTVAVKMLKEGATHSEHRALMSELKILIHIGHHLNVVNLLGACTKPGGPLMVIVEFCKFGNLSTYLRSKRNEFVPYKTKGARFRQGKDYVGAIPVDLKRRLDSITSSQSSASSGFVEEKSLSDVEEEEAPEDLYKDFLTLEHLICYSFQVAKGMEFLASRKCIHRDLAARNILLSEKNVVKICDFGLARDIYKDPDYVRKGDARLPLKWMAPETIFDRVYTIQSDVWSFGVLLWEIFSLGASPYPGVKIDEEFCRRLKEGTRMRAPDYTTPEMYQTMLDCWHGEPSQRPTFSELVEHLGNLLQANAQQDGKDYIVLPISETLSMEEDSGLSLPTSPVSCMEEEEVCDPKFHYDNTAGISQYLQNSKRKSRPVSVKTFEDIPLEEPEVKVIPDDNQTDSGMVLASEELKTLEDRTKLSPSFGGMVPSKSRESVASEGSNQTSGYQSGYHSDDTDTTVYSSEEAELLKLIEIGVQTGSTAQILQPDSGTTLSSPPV
pIC50: −log10 of the molar value.
measurement-kind: pIC50

{"compound": "COCCn1cc(-c2cn3ncc(C(=O)Nc4cc(NC(=O)CCN5CCC6(CCC6)C5)cnc4C)c3s2)cn1", "endpoint-value": "< 5.60"}
{"compound": "Cc1ncc(C(=O)NCCN2Cc3ncsc3C2)cc1NC(=O)c1cnn2cc(-c3cnn(C)c3)sc12", "endpoint-value": "< 5.12"}
{"compound": "COc1ncccc1-c1cn2ncc(C(=O)Nc3cc(NC(=O)CN4C[C@H](CO)OC(C)(C)C4)cnc3C)c2s1", "endpoint-value": "< 5.60"}
{"compound": "Cc1ncc(NC(=O)CN2CC(C)(C)C2)cc1NC(=O)c1cnn2cc(-c3cnn(C(F)F)c3)sc12", "endpoint-value": "< 5.12"}
{"compound": "Cc1ncc(NC(=O)CN2CC(C)(C)C2)cc1NC(=O)c1cnn2cc(-c3cccc4c3cnn4C)sc12", "endpoint-value": "< 5.60"}
{"compound": "COCCn1cc(-c2cn3ncc(C(=O)Nc4cc(NC(=O)CN5CCC(C6CC6)C5)cnc4C)c3s2)cn1 (centres unmarked)", "endpoint-value": "< 5.12"}
{"compound": "Cc1ncc(NC(=O)OC[C@@H]2CCCN2C)cc1NC(=O)c1cnn2cc(-c3cccnc3O)sc12", "endpoint-value": "< 5.12"}
{"compound": "Cc1ncc(NC(=O)CN2CCC[C@@H]2C)cc1NC(=O)c1cnn2cc(-c3cnn(C)c3)sc12", "endpoint-value": "< 5.12"}
{"compound": "Cc1ncc(C(=O)NCCN2CC(C)(C)C2)cc1NC(=O)c1cnn2cc(-c3cnn(C)c3)sc12", "endpoint-value": "< 5.12"}
{"compound": "Cc1ncc(C(=O)NCCN2CCCC2(C)C)cc1NC(=O)c1cnn2cc(-c3cn(C)nc3CO)sc12", "endpoint-value": "< 5.60"}
{"compound": "Cc1ncc(C(=O)NCCN2C[C@H]3CC[C@@H]2C3)cc1NC(=O)c1cnn2cc(-c3cnn(C)c3C)sc12", "endpoint-value": "< 5.12"}
{"compound": "COCCCc1cn2ncc(C(=O)Nc3cc(C(=O)NCCN4CCCC4(C)C)cnc3C)c2s1", "endpoint-value": "< 5.12"}
{"compound": "Cc1ncc(C(=O)NCCN2CC3CCC2C3)cc1NC(=O)c1cnn2cc(-c3cnn(C)c3C)sc12 (centres unmarked)", "endpoint-value": "< 5.12"}
{"compound": "Cc1ncc(C(=O)NCCN2CC3COCC3C2)cc1NC(=O)c1cnn2cc(-c3cnn(C)c3)sc12 (centres unmarked)", "endpoint-value": "< 5.12"}
